Biological target: human MOPr (Homo sapiens, UniProt P35372)
Sequence (P35372 whole entry): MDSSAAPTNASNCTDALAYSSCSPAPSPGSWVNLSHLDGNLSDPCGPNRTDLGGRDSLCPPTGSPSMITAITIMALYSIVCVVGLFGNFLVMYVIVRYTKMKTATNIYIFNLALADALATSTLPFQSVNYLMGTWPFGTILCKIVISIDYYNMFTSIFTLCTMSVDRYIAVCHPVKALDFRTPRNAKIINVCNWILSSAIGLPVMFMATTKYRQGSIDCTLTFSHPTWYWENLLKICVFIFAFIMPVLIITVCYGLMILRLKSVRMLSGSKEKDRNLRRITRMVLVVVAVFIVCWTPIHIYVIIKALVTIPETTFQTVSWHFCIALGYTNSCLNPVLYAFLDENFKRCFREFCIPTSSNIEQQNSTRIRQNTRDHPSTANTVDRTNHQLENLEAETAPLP
Experiment: BRET1 β-arrestin-2 recruitment assay;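 note: Emax relative to maximal DAMGO-induced BRET as 100%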
Format: cell-based
Parameters: expressed in transfected cells; host or cells: HEK293 cells stably expressing eYFP-β-arrestin-2, transiently transfected with the Rluc8-MOP plasmid
Settings: read-out: MOPr (β-arrestin-2) Emax
Starred links: 1 amine or outer side, 2 acyl side, 3 side chain; linkers in the order of their positions; H or OH if unused. Non-standard residues stand in square brackets, D forms with d. Residues, ends and D or L forms follow the SMILES beside them. *: point of attachment. Nva(5-(4-Bn-piperidin-1-yl)) = N[C@@H](CCCN1CCC(Cc2ccccc2)CC1)C(=O)O; X1 = O=C1[C@@H](N[*:1])Cc2ccccc2CN1CCC(=O)[*:2]; Dmt = Cc1cc(O)cc(C)c1C[C@H](N)C(=O)O; Nicotinoyl = O=C(c1cccnc1)*
Documented Emax across a set of compounds

Example entries and their recorded answers appear below.
| COMPOUND | Emax |
| --- | --- |
| Cc1cc(O)cc(C)c1C[C@H](N)C(=O)N[C@H](CCCNC(=N)N)C(=O)N[C@@H](Cc1ccccc1)C(=O)N(C)CC(=O)N[C@@H](CCCN1CCC(Cc2ccccc2)CC1)C(=O)N[C@@H](Cc1ccccc1)C(N)=O [DP0024, H-Dmt-D-Arg-Phe-N(Me)Gly-Bpa-Phe-NH2] (HELM PEPTIDE1{[Cc1cc(O)cc(C)c1C[C@H](N)C(=O)[*:2]].[dR].F.[Sar].[O=C([C@H](CCCN1CCC(Cc2ccccc2)CC1)N[*:1])[*:2]].F.[am]}$$$$V2.0) | ~95% |
| Cc1cc(O)cc(C)c1C[C@H](N)C(=O)N[C@H](CCCNC(=N)N)C(=O)N[C@H]1Cc2ccccc2CN(CCC(=O)N[C@H](CCCN2CCC(Cc3ccccc3)CC2)C(=O)N[C@@H](Cc2ccccc2)C(N)=O)C1=O | ~68% |

Shift focus to the following entry.
Lab note: compound Cc1cc(O)cc(C)c1C[C@H](N)C(=O)N[C@H](CCCCNC(=O)c1cccnc1)C(=O)N[C@H]1Cc2ccccc2CN(CCC(=O)N[C@@H](CCCN2CCC(Cc3ccccc3)CC2)C(=O)N[C@@H](Cc2ccccc2)C(N)=O)C1=O [DP0034, H-Dmt-D-Lys(Nic)-Aba-β-Ala-Bpa-Phe-NH2] (H-[Dmt][dK](Nicotinoyl)[X1][Nva(5-(4-Bn-piperidin-1-yl))]F-NH2) tested on human MOPr (Homo sapiens, UniProt P35372); recorded Emax was ~18%

Measured values drawn from patent US20210002231A1 for this set.
